These measurements were taken from paper PMC6616128.

Let's look at some molecules and their measured % inhibition.
- MEASURED_ON: AKR1C1 (Homo sapiens, UniProt Q04828)
- Sequence (Q04828 whole entry, the tested form may be a part): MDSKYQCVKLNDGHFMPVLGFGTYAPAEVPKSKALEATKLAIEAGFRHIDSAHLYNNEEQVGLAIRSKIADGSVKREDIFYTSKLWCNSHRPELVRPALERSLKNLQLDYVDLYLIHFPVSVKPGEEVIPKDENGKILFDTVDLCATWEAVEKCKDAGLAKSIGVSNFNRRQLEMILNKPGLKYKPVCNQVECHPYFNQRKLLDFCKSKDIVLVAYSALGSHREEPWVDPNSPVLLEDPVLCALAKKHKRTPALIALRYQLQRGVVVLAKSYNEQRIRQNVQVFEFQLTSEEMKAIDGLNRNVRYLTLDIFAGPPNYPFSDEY
- PROTOCOL_NOTES: Enzyme activity (NADPH) assay with s-tetralol, recombinant GST-AKR1C1;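 also: GST-fused AKR1C1 expressed in E. coli and purified by glutathione affinity, control wells received DMSO instead of compound, duplicate samples from a single experiment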
- Type: biochemical
- Set-up: made in house; host or cells: Escherichia coli JM109
- CONDITION_SET: 2 μM compound; Supplementary Table 1
# number only, unit % dropped from output

MOLECULE	REPORTED_VALUE
CC(C)=CCC[C@](C)(O[C@@H]1O[C@H](CO)[C@@H](O)[C@H](O)[C@H]1O)[C@H]1CC[C@]2(C)[C@@H]1[C@H](O)C[C@@H]1[C@@]3(C)CC[C@H](O)C(C)(C)[C@@H]3CC[C@]12C [Ginsenoside CK]	-0.56
C=C1C(=O)O[C@@H]2/C=C(\C)CC/C=C(\C)CC[C@@H]12 [Costundide]	40.47
C[C@H]1O[C@@H](O[C@H]2CC[C@@]3(C)[C@@H](CC[C@]4(C)[C@@H]3C=C[C@]35OC[C@@]6(CCC(C)(C)C[C@H]63)[C@H](O)C[C@]54C)[C@]2(C)CO)[C@H](O)[C@@H](O[C@@H]2O[C@H](CO)[C@@H](O)[C@H](O)[C@H]2O)[C@H]1O	5.41
Oc1cc(O)c2c(c1)O[C@H](c1cc(O)c(O)c(O)c1)[C@H](O)C2 [(−)-Epigallocatechin]	-7.17

Given the molecule `C[C@H]1CC[C@@H]2N(C1)C[C@H]1[C@@H]3C[C@H]4[C@@H](C[C@H](O)[C@H]5C[C@@H](O)CC[C@@]54C)[C@@H]3CC[C@@H]1[C@]2(C)O` and test system AKR1C1 (Homo sapiens, UniProt Q04828), the measured % inhibition is 4.66
